Protocol Description: Hematology assays in cynomolgus monkeys (Example 45)
Format: in vivo
Applied Conditions: day 22
Please provide measured eosinophils for the entries that follow.
Express your answer in %, writing the number without its unit.

Field eosinophils (entry ISIS 417002: MOE gapmer, nucleobases 1275 to 1318 of SEQ ID NO: 1 (Table 8) (antisense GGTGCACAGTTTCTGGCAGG; MOE gapmer, wing and gap sizes not given here) ) reads 0.3

Looking up ISIS 416864: MOE gapmer, nucleobases 1275 to 1318 of SEQ ID NO: 1 (Table 8) (antisense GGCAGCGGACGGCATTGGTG; MOE gapmer, wing and gap sizes not given here) , I see its eosinophils listed as 0.9

Reported eosinophils ( ISIS 416858: MOE gapmer, nucleobases 1275 to 1318 of SEQ ID NO: 1 (Table 8) (antisense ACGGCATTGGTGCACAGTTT; MOE gapmer, wing and gap sizes not given here) ) = 0.6

// ISIS 416838: MOE gapmer, nucleobases 1018 to 1042 of SEQ ID NO: 1 (Table 6) (antisense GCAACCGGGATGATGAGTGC; MOE gapmer, wing and gap sizes not given here) : eosinophils value = 0.5

The substance listed as ISIS 416850: MOE gapmer, nucleobases 1275 to 1318 of SEQ ID NO: 1 (Table 8) (antisense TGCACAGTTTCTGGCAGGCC; MOE gapmer, wing and gap sizes not given here) shows eosinophils equal to 0.7

These data points were gathered from patent US20230263822A1.
